# System Under Test: SXc− (Homo sapiens)
# Sequence (Q9UPY5 1-501): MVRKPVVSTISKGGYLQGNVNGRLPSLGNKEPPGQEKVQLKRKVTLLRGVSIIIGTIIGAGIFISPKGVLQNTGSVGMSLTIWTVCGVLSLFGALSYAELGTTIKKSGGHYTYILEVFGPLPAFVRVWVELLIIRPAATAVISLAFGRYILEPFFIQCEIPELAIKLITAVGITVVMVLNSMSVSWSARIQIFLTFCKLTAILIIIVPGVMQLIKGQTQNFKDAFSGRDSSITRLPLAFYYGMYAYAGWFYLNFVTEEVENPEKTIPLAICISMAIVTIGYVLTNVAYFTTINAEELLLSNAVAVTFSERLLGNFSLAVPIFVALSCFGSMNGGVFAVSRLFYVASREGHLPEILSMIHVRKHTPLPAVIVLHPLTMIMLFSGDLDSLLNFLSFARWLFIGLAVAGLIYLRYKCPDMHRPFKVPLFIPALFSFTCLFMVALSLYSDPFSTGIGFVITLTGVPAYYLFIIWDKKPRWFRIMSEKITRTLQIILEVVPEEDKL
# Sequence (P08195 1-529 partner): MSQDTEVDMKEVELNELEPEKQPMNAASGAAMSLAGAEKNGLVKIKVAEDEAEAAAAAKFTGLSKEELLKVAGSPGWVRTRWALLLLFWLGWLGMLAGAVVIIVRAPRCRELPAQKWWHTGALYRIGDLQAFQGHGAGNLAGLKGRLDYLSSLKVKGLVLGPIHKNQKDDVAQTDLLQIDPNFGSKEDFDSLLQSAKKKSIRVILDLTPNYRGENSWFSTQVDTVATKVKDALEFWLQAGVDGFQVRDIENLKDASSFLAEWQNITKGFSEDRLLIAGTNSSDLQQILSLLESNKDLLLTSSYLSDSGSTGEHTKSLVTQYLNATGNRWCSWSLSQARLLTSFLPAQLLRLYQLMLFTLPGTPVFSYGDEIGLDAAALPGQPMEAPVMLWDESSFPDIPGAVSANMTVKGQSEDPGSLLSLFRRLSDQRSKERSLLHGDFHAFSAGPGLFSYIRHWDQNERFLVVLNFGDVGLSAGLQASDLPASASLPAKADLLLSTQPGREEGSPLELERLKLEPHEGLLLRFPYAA
Parameter: Ki (µM)
# output: bare number, implied unit µM

Give Ki only, for `O=C(O)c1cc(/N=N/c2ccc(S(=O)(=O)Nc3ccccn3)cc2)ccc1O` , using SXc− (Homo sapiens) data. 10.4
